Ref: PubChem BioAssay (NCATS)

test: Quantitative High-Throughput drug screen in 47 multiple myeloma cell lines against the NCATS MIPE library collection: KMS27_JCRB cell viability assay (AID 1918970); conditions: KMS27 myeloma cells, CellTiter-Glo ATP viability, 48 h; series mostly up to 45.8 µM; note: nearly all actives have a fitted effect of over 30% in size; note: potency is the fitted concentration of half-maximal effect
Records with an inconclusive call do not appear. The source made the active and inactive calls. Calls come from the whole dose curve; as a rule, active = well fitted cell-killing curve with a large enough effect; inconclusive = small, poorly fitted or top-dose-only effect, or effect the other way; inactive = no such curve, though single readings can be large or run the other way. Peptide text beside a SMILES is read from it.
MEASURED_METRIC: Potency

Cc1cc(Cl)ccc1OCCCC(=O)NO : 3.32 µM (active)
Cc1cccc(C#Cc2ccccc2)n1 : inactive
CNC[C@@H](O)[C@@H](O)[C@H](O)[C@H](O)CO : inactive
O=C1c2ccccc2-c2n[nH]c3cccc1c23 : 2.96 µM (active)
Cc1ccc(Nc2nccc(N(C)c3ccc4c(C)n(C)nc4c3)n2)cc1S(N)(=O)=O : 20.9 µM (active)
COC(=O)C1=C(C)NC(C)=C(C(=O)OC(C)C)C1c1cccc2nonc12 (configuration not stated) : inactive
Cc1cc2cc3c(C)cc(=O)oc3c(C)c2o1 : 26.4 µM (active)
CCCCCCCCCCCCCCCCCCCCCCO : inactive

Lab note: measured Potency of CC(S)C(=O)NCC(=O)O (configuration not stated) was inactive

Documented Potency of Cc1cc(=O)oc2cc(O)ccc12 : inactive

Data point: COc1cc2c(N3CCN(C(=O)Nc4ccc(OC(C)C)cc4)CC3)ncnc2cc1OCCCN1CCCCC1 ; Potency = inactive

Potency recorded for this molecule, Clc1ccc(C(Cn2ccnc2)OCc2ccc(Sc3ccccc3)cc2)c(Cl)c1 (configuration not stated) , is 18.7 µM (active)

Entry C[C@H](Cc1ccc(O)c(O)c1)[C@@H](C)Cc1ccc(O)c(O)c1 — recorded Potency = 9.35 µM (active)

What the record says about Nc1nc(OCc2ccccc2)c2[nH]cnc2n1 : Potency is 14.8 µM (active)

Data point: Nc1nc(N)c(N=O)c(OCC2CCCCC2)n1 ; Potency = 6.62 µM (active)

According to the records, this molecule COC(=O)[C@H](Cc1ccccc1)NC(=O)[C@@H](N)CC(=O)O (H-Asp-Phe-OMe) displays Potency of inactive

# Potency (molecule: CN(C)CCc1c[nH]c2ccc(Cn3cncn3)cc12 ) is 16.6 µM (active)

----------
assay: Quantitative High-Throughput drug screen in 47 multiple myeloma cell lines against the NCATS MIPE library collection: KMM1_JCRB cell viability assay (AID 1918960); details: KMM1 myeloma viability, CellTiter-Glo ATP luminescence, 48 h; series mostly up to 45.8 µM; note: nearly all actives have a fitted effect of over 30% in size
Records with an inconclusive call do not appear. Calls of active or inactive are those of the source. Calls follow the shape of the dose curve; as a rule, active = well fitted cell-killing curve with a large enough effect; inconclusive = small, poorly fitted or top-dose-only effect, or effect the other way; inactive = no such curve, though single readings can be large or run the other way.
Thanks in advance; please answer with one of these: 1.0 (active), 0.0 (inactive)

Nc1cc(C(Cl)=C(Cl)Cl)c(S(N)(=O)=O)cc1S(N)(=O)=O : 0.0

Challenge: Hey, what did the test say about COCCCOc1ccnc(CS(=O)c2nc3ccccc3[nH]2)c1C (stereo not given) ?
Response given: 0.0

Challenge: Short answer needed: outcome of this test for CC(=O)N1CCN(c2ccc(OC[C@H]3CO[C@](Cn4ccnc4)(c4ccc(Cl)cc4Cl)O3)cc2)CC1 ?
Response given: 1.0

Challenge: Could you kindly confirm the outcome this assay logged for O=P(O)(O)C(O)(Cn1ccnc1)P(=O)(O)O ?
Response given: 0.0

Challenge: // outcome(item) with item = Cc1c(OCC(F)(F)F)ccnc1CS(=O)c1nc2ccccc2[nH]1 (stereo not given)
Response given: 1.0

Challenge: State the result this test recorded for Nc1ccn([C@@H]2O[C@H](CO)[C@@H](O)C2O)c(=O)n1 (stereo not given in full) .
Response given: 0.0

Challenge: Lab log entry: COc1cc2c(cc1OC)C1CC(=O)C(CC(C)C)CN1CC2 (stereo not given) — outcome as called in the assay?
Response given: 0.0

Challenge: Please share the test call associated with CN(C)c1ccc2nc3ccc(=[N+](C)C)cc-3sc2c1 .
Response given: 1.0

Challenge: Entry CNC[C@H](O)c1ccc(O)c(O)c1 : call = ?
Response given: 0.0

Challenge: Record request — test call for CC1=C(C(=O)O)N2C(=O)[C@@H](NC(=O)[C@H](N)C3=CCC=CC3)[C@H]2SC1
Response given: 0.0

Challenge: Hey, what did the test say about O=C(O)c1cccc(-c2noc(-c3ccccc3F)n2)c1 ?
Response given: 0.0

Challenge: Per the assay record, what outcome was assigned to C[C@@H](c1ncncc1F)[C@](O)(Cn1cncn1)c1ccc(F)cc1F ?
Response given: 0.0

Challenge: How did this test come out for CCCCC(CC)COC(=O)C(C#N)=C(c1ccccc1)c1ccccc1 (stereo not given) ?
Response given: 0.0

Challenge: Recorded test outcome, item CN(c1nccc(=O)[nH]1)C1CCN(c2nc3ccccc3n2Cc2ccc(F)cc2)CC1
Response given: 0.0

----------
parasite growth remaining, % of DMSO control (lower = more inhibition) values for the compounds below.
assay: qHTS profiling of the MIPE4 collection as inhibitors of Plasmodium falciparum (DD2) proliferation (AID 743345); conditions: P. falciparum Dd2 in erythrocytes, SYBR Green DNA, 72 h; at 28.5 µM (top of the series) unless noted
// note: answer is a bare numeric in %

Observe how each entry below is paired with its result.
O=C(O)c1cn(-c2ccc(F)cc2)c2cc(N3CCNCC3)c(F)cc2c1=O : 67.2
O=c1c(O)c(-c2cc(O)c(O)c(O)c2)oc2cc(O)cc(O)c12 : 85.3
Oc1ccc2ccccc2c1SSc1c(O)ccc2ccccc12 : 53.4

// sample Cc1ccc(C(=O)c2cc(O)c(O)c([N+](=O)[O-])c2)cc1 , its parasite growth remaining, % of DMSO control (lower = more inhibition) was 93.6

Sure, the documented parasite growth remaining, % of DMSO control (lower = more inhibition) for CNC[C@@H](O)[C@@H](O)[C@H](O)[C@H](O)CO is 123

// parasite growth remaining, % of DMSO control (lower = more inhibition) lookup, compound = CC(C)c1ccc2oc3nc(N)c(C(=O)O)cc3c(=O)c2c1 , result: 91.1

Summary for this compound, C[C@]12CCC(=O)C=C1CC[C@@H]1[C@H]2[C@@H](O)C[C@@]2(C)[C@H]1CC[C@]2(O)C(=O)CO : parasite growth remaining, % of DMSO control (lower = more inhibition) is 93.1

parasite growth remaining, % of DMSO control (lower = more inhibition) reading for Cc1ncc([N+](=O)[O-])n1CC(C)O (centres undefined) : 95.7

----------
tested on: C2A; assay: qHTS profiling for inhibitors of Plasmodium falciparum proliferation (AID 504749); note: nearly all actives have a fitted effect of over 60% in size; conditions: P. falciparum in erythrocytes, SYBR Green DNA, 72 h; series mostly up to 28.7 µM
Results filed as inconclusive are left out. The source made the active and inactive calls. Calls come from the whole dose curve; as a rule, active = well fitted inhibition curve with a large enough effect; inconclusive = small, poorly fitted or top-dose-only effect; inactive = flat fitted curve, though single readings scatter.
Allowed answers: yes (1) = active, no (0) = inactive

N[C@@H](Cc1cc(I)c(Oc2cc(I)c(O)c(I)c2)c(I)c1)C(=O)O : no (0)
Cc1cccc(C)c1OCC(=O)N[C@@H](Cc1ccccc1)[C@@H](O)C[C@H](Cc1ccccc1)NC(=O)[C@H](C(C)C)N1CCCNC1=O : yes (1)
O=C(NC(Cc1cc(=O)[nH]c2ccccc12)C(=O)O)c1ccc(Cl)cc1 (centres undefined) : no (0)

Challenge: Name the outcome recorded for CC(C)[C@H](N)C(=O)OCCOCn1cnc2c(=O)[nH]c(N)nc21 in the assay.
Response given: no (0)

----------
experiment: Quantitative High-Throughput drug screen in 47 multiple myeloma cell lines against the NCATS MIPE library collection: XG6_PLB cell viability assay (AID 1919865); conditions: XG6 myeloma viability, CellTiter-Glo ATP luminescence, 48 h; series mostly up to 45.8 µM; note: nearly all actives have a fitted effect of over 40% in size
Results filed as inconclusive are left out. The source made the active and inactive calls. The call rests on the fitted dose curve; in most records, active means well fitted cell-killing curve with a large enough effect; inconclusive means small, poorly fitted or top-dose-only effect, or effect the other way; inactive means no such curve, though single readings can be large or run the other way.
Your answer must be one of the following: active, inactive

Use the examples below as a reference point.
CNC[C@@H](O)[C@@H](O)[C@H](O)[C@H](O)CO : inactive
Cc1ccc(NC(=O)c2ccc(CN3CCN(C)CC3)cc2)cc1Nc1nccc(-c2cccnc2)n1 : active
COc1cc2c(cc1OC)C1CC(=O)C(CC(C)C)CN1CC2 (stereo not given) : inactive
CC[C@]1(O)C[C@H]2CN(CCc3c([nH]c4ccccc34)[C@@](C(=O)OC)(c3cc4c(cc3OC)N(C=O)[C@H]3[C@@](O)(C(=O)OC)[C@H](OC(C)=O)[C@]5(CC)C=CCN6CC[C@]43[C@@H]65)C2)C1 : inactive
CCCCCCCCCCCCCCCCCCCCCCO : inactive

Challenge: // outcome(item) with item = NNc1nncc2ccccc12
Response given: inactive

Challenge: Hi, do you know how O=C(c1ccccc1)c1ccc2n1CCC2C(=O)O (stereo not given) came out in this test?
Response given: active

Challenge: // return assay outcome for S=c1nc[nH]c2nc[nH]c12
Response given: active

Challenge: Lab log entry: CCOC(=O)c1c(C)n(C)c2ccc(O)cc12 — outcome as called in the assay?
Response given: inactive

Challenge: Please let me know the test result on file for Cc1c(C(=O)NN2CCCCC2)nn(-c2ccc(Cl)cc2Cl)c1-c1ccc(Cl)cc1 .
Response given: active
